# assay: AUC (0 to t) in CD-1 mouse brain at 10 mg/kg, ip administered as single dose and measured after 15 to 240 mins by LC-MS/MS analysis
# Assay type: ADME, organism-based
# Parameters: time 15-240 min, dose 10 mg/kg, route ip
propertyName: AUC(0-t) (ng·h/mL)
Numeric answer only, unit ng·h/mL assumed.

Consider the compound shown here: O=C(CC(c1ccccc1)c1ccccc1)NCC(O)CNCC1CCCCC1 (stereo unspecified) What is its recorded AUC(0-t)? 85.1

---

# assay: Half life in CD-1 mouse brain at 30 mg/kg, ip administered as single dose and measured after 15 to 240 mins by LC-MS/MS analysis
# Type: ADME, organism-based
# assayConditions: time 15-240 min
propertyName: half-life
Please answer using a numeric value trailed by its unit.

Consider the compound shown here: O=C(CC(c1ccccc1)c1ccccc1)NCC(O)CNCC1CCCCC1 (stereo unspecified) What is its recorded half-life? 4.24 h

---

# assay: Cmax in CD-1 mouse brain at 30 mg/kg, ip administered as single dose and measured after 15 to 240 mins by LC-MS/MS analysis
# Assay type: ADME, organism-based
# Design: time upper 240 min, time lower 15 min, dose 30 mg/kg, route ip
propertyName: Cmax (ng/mL)
Numeric answer only, unit ng/mL assumed.

Consider the compound shown here: O=C(CC(c1ccccc1)c1ccccc1)NCC(O)CNCC1CCCCC1 (stereo unspecified) What is its recorded Cmax? 44.3

---

# assay: AUC (0 to t) in CD-1 mouse plasma at 30 mg/kg, ip administered as single dose and measured after 15 to 240 mins by LC-MS/MS analysis
# Type: ADME, organism-based
# Set-up: dose 30 mg/kg, time 15-240 min, route ip
propertyName: AUC(0-t) (ng·h/mL)
Numeric answer only, unit ng·h/mL assumed.

Consider the compound shown here: O=C(CC(c1ccccc1)c1ccccc1)NCC(O)CNCC1CCCCC1 (stereo unspecified) What is its recorded AUC(0-t)? 441

---

# assay: Ratio of brain to plasma partition coefficient in CD-1 mouse at 30 mg/kg, ip administered as single dose and measured after 15 to 240 mins by LC-MS/MS analysis
# Assay type: ADME, organism-based
# assayConditions: time 15-240 min, read-out: BPR
propertyName: Kp
Form rule: numeric answer, no unit written next to it.

Consider the compound shown here: O=C(CC(c1ccccc1)c1ccccc1)NCC(O)CNCC1CCCCC1 (stereo unspecified) What is its recorded Kp? 0.28

---

# assay: AUC (0 to t) in CD-1 mouse plasma at 10 mg/kg, ip administered as single dose and measured after 15 to 240 mins by LC-MS/MS analysis
# Type: ADME, organism-based
# Set-up: time upper 240 min, dose 10 mg/kg, time lower 15 min, route ip
propertyName: AUC(0-t) (ng·h/mL)
Numeric answer only, unit ng·h/mL assumed.

Consider the compound shown here: O=C(CC(c1ccccc1)c1ccccc1)NCC(O)CNCC1CCCCC1 (stereo unspecified) What is its recorded AUC(0-t)? 247

---

# assay: Half life in CD-1 mouse plasma at 30 mg/kg, ip administered as single dose and measured after 15 to 240 mins by LC-MS/MS analysis
# Assay type: ADME, organism-based
# assayConditions: time 15-240 min
propertyName: half-life (min)
Numeric answer only, unit min assumed.

Consider the compound shown here: O=C(CC(c1ccccc1)c1ccccc1)NCC(O)CNCC1CCCCC1 (stereo unspecified) What is its recorded half-life? 54.7
